biological target: CDK2/cyclinE1 complex (Homo sapiens, UniProt P24941); assay: In-vitro enzymatic inhibitory activity testing, CDK2 inhibition assay (Caliper EZ Reader II); conditions: CDK2/cyclinE1 0.5 nM, 180 min at 27° C.
Property Label: IC50

Molecule	IC50
CC(O)[C@H](C)Nc1ncc(C(F)(F)F)c(-c2c[nH]c3c(P(C)(C)=O)cccc23)n1 (single isomer, unassigned) [Compound 129]	5 to 50 µM

Recorded IC50 (molecule FC(F)(F)c1cnc(NC2CCCC3(CCNCC3)C2)nc1-c1c[nH]c2nc(N3CCOCC3)ccc12 (centres unmarked) [Compound 41] ): 5 to 50 µM

Recorded IC50 (molecule CP(C)(=O)c1cccc2c(-c3nc(NC4CC45CCNC5)ncc3C(F)(F)F)c[nH]c12 (single isomer, unassigned) [Compound 108] ): 0.2 to 5 µM

Recorded IC50 (molecule CP(C)(=O)c1cccc2c(-c3nc(NC4CCC5(CCNC5)C4)ncc3C(F)(F)F)c[nH]c12 (single isomer, unassigned) [Compound 100] ): 0.2 to 5 µM

Recorded IC50 (molecule CP(C)(=O)c1cccc2c(-c3nc(NC4(CO)COC4)ncc3C(F)(F)F)c[nH]c12 [Compound 114] ): 0.2 to 5 µM

Recorded IC50 (molecule N#Cc1ccc2c(-c3nc(N[C@@H]4CCC45CNC5)ncc3C(F)(F)F)c[nH]c2n1 [Compound 61] ): 5 to 50 µM

Recorded IC50 (molecule FC(F)(F)c1cnc(NC2CCC3CNCC32)nc1-c1c[nH]c2nc(N3CCOCC3)ccc12 (centres unmarked) [Compound 55] ): 5 to 50 µM

====

# pIC50 listing for each entry below
biological target: CDK12 (aa686-1082)/cyclinK complex (Homo sapiens, UniProt Q9NYV4); construct: A CDK12 (aa686-1082)/cyclinK complex (50 nM); assay: In-vitro enzymatic inhibitory activity testing, CDK12 inhibition assay (Caliper EZ Reader II); format: biochemical; settings: CDK12/cyclinK 50 nM, 180 min at 27° C.; read-out: CDK12 IC50
Sequence (Q9NYV4 686-1082, species assumed): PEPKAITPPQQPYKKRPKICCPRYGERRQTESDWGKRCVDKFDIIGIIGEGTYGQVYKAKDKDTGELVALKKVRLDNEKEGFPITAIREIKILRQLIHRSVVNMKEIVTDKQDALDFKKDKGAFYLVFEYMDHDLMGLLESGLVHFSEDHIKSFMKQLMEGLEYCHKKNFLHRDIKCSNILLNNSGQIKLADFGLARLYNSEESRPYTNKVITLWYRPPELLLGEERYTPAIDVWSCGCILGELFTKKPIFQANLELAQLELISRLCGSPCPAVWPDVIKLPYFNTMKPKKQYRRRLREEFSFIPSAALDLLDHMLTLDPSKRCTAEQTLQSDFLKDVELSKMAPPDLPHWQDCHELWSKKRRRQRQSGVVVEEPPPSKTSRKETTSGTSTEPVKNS
Sequence (O75909 whole entry partner, species assumed, the tested form may be a part): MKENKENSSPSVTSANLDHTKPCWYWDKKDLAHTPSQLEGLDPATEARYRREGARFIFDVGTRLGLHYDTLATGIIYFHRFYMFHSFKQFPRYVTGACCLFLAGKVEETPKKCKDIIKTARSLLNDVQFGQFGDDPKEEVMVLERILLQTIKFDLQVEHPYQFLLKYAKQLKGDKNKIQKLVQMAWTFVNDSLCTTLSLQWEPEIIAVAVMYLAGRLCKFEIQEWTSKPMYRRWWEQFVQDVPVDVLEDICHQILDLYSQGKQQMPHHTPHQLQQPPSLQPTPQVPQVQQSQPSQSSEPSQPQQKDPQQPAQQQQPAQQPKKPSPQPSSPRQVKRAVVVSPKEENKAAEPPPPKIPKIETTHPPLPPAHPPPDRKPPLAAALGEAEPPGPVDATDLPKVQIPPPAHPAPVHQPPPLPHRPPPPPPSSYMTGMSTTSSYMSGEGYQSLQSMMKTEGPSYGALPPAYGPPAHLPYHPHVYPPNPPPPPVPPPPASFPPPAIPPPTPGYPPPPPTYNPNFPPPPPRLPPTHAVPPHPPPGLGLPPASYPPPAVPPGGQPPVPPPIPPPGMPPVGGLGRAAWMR
pIC50: −log10 of the molar value.

Recorded pIC50 (compound Cc1noc(C)c1-c1ccc2c(-c3nc(NC4CCC5(CCNC5)C4)ncc3C(F)(F)F)c[nH]c2n1 (stereo not drawn) ): 5.30 to 6.70

Recorded pIC50 (compound FC(F)(F)c1cnc(NC2CCC23CCNC3)nc1-c1c[nH]c2nc(N3CCOCC3)ccc12 (stereo not drawn) ): 4.30 to 5.30

Recorded pIC50 (compound CP(C)(=O)c1cccc2c(-c3nc(NC4(CO)CCOC4)ncc3C(F)(F)F)c[nH]c12 (single isomer, unassigned) [Compound 119] ): < 4.30

Recorded pIC50 (compound "C[C@@H](CO)Nc1ncc(Br)c(-c2c[nH]c3c(P(C)(C)=O)cccc23)n1" ): 4.30 to 5.30

Recorded pIC50 (compound "CC(C)(O)CNc1ncc(C(F)(F)F)c(-c2c[nH]c3c(P(C)(C)=O)cccc23)n1" ): < 4.30

Recorded pIC50 (compound "CP(C)(=O)c1cccc2c(-c3nc(N[C@@H](CO)C4CCC4)ncc3C(F)(F)F)c[nH]c12" ): < 4.30

Recorded pIC50 (compound CP(C)(=O)c1cccc2c(-c3nc(NCC(O)C(F)(F)F)ncc3C(F)(F)F)c[nH]c12 (single isomer, unassigned) [Compound 147] ): < 4.30

Recorded pIC50 (compound "COc1ccc2c(-c3nc(N[C@@H](C)CO)ncc3C(F)(F)F)c[nH]c2c1P(C)(C)=O" ): 4.30 to 5.30

Recorded pIC50 (compound "CC(C)[C@@H](CO)Nc1ncc(C(F)(F)F)c(-c2c[nH]c3c(P(C)(C)=O)cccc23)n1" ): < 4.30

Recorded pIC50 (compound CP(C)(=O)c1cccc2c(-c3nc(NC4(CO)CCOC4)ncc3C(F)(F)F)c[nH]c12 (single isomer, unassigned) [Compound 118] ): < 4.30

Recorded pIC50 (compound "CP(C)(=O)c1cccc2c(-c3nc(NCC4(O)CC4)ncc3C(F)(F)F)c[nH]c12" ): < 4.30

Recorded pIC50 (compound "C[C@@H](CO)Nc1ncc(C(F)(F)F)c(-c2c[nH]c3c(P(C)(C)=O)cccc23)n1" ): 4.30 to 5.30

Recorded pIC50 (compound "CC(C)(CO)Nc1ncc(C(F)(F)F)c(-c2c[nH]c3c(P(C)(C)=O)cccc23)n1" ): < 4.30

Recorded pIC50 (compound CN(C)CC1CCCC1Nc1ncc(C(F)(F)F)c(-c2c[nH]c3c(P(C)(C)=O)cccc23)n1 (single isomer, unassigned) [Compound 136] ): < 4.30

Recorded pIC50 (compound FC(F)(F)c1cnc(NC2CCCNCC2)nc1-c1c[nH]c2nc(N3CCOCC3)ccc12 (stereo not drawn) [Compound 47] ): 4.30 to 5.30

====

# IC50 listing for each entry below
molecular target: CDK7/cyclinH/MAT1 complex (Homo sapiens); assay: In-vitro enzymatic inhibitory activity testing, CDK7 inhibition assay (Caliper EZ Reader II); conditions: CDK7/cyclinH/MAT1 6 nM, 180 min at 27° C.

For orientation, consider the following solved cases.
Compound	Assayed Target	IC50
CP(C)(=O)c1cccc2c(-c3nc(NCC4(O)CCCC4)ncc3C(F)(F)F)c[nH]c12	CDK7/cyclinH/MAT1 complex (Homo sapiens)	20 to 200 nM
C[C@H]1COCCN1c1ccc2c(-c3nc(N[C@H]4CC[C@@H](N)C4)ncc3C(F)(F)F)c[nH]c2n1	CDK7/cyclinH/MAT1 complex (Homo sapiens)	20 to 200 nM
CP(C)(=O)c1cccc2c(-c3nc(NCC(O)C(F)(F)F)ncc3C(F)(F)F)c[nH]c12 (single isomer, unassigned) [Compound 147]	CDK7/cyclinH/MAT1 complex (Homo sapiens)	20 to 200 nM

Recorded IC50 (compound CC1(C)COCC(Nc2ncc(C(F)(F)F)c(-c3c[nH]c4c(P(C)(C)=O)cccc34)n2)CN1 (single isomer, unassigned) [Compound 91] ): < 20 nM

Recorded IC50 (compound "CP(C)(=O)c1cccc2c(-c3nc(NCC4(O)CCC4)ncc3C(F)(F)F)c[nH]c12" ): 20 to 200 nM

Recorded IC50 (compound "CP(C)(=O)c1cccc2c(-c3nc(N[C@H]4CC[C@@H]4O)ncc3C(F)(F)F)c[nH]c12" ): < 20 nM

Recorded IC50 (compound "CP(C)(=O)c1cccc2c(-c3nc(NCCCO)ncc3C(F)(F)F)c[nH]c12" ): < 20 nM

====

target: CDK7/cyclinH/MAT1 complex (Homo sapiens, UniProt P50613); experiment: In-vitro enzymatic inhibitory activity testing, CDK7 inhibition assay (Caliper EZ Reader II); conditions: CDK7/cyclinH/MAT1 6 nM, 180 min at 27° C.
Sequence (P50613 whole entry, species assumed): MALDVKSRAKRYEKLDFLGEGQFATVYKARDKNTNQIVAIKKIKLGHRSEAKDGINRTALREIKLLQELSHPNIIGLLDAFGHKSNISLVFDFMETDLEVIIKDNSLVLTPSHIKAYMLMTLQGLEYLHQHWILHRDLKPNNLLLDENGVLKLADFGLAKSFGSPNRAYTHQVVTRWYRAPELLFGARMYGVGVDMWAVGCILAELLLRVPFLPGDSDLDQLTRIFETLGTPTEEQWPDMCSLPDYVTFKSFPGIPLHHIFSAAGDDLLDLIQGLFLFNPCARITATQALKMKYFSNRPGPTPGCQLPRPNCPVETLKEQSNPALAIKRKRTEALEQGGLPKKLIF
Sequence (P51946 whole entry partner, species assumed): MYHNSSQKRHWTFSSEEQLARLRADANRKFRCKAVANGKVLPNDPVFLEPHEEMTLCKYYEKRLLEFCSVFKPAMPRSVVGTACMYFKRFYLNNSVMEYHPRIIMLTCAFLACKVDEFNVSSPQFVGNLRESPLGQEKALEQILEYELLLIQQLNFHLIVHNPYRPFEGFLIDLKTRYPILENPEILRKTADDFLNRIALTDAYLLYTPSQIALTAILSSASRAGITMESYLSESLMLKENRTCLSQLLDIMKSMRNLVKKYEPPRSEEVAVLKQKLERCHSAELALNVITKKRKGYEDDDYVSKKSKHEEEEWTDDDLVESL
Sequence (P51948 whole entry partner, species assumed): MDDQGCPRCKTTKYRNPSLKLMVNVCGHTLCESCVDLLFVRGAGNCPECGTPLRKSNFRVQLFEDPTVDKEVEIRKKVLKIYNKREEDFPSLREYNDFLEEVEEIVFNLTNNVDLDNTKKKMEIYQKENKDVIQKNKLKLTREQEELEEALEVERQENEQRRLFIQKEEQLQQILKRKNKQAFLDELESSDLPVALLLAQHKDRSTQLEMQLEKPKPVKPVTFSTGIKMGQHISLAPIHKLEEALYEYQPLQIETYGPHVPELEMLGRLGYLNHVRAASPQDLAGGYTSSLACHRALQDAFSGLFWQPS
pIC50: −log10 of the molar value.
Property Label: pIC50

Compound	pIC50
CC(C)[C@@H](CO)Nc1ncc(C(F)(F)F)c(-c2c[nH]c3c(P(C)(C)=O)cccc23)n1 [Compound 115]	6.70 to 7.70
CP(C)(=O)c1cccc2c(-c3nc(NC4(CO)CCOC4)ncc3C(F)(F)F)c[nH]c12 (single isomer, unassigned) [Compound 119]	6.70 to 7.70
CC(O)[C@H](C)Nc1ncc(C(F)(F)F)c(-c2c[nH]c3c(P(C)(C)=O)cccc23)n1 (mixture of isomers) [Compound 128]	> 7.70
CP(C)(=O)c1cccc2c(-c3nc(N[C@@H](CO)C4CCC4)ncc3C(F)(F)F)c[nH]c12 [Compound 113]	6.70 to 7.70

Recorded pIC50 (compound C[C@H](CO)Nc1ncc(C(F)(F)F)c(-c2c[nH]c3c(P(C)(C)=O)cccc23)n1 [Compound 93] ): > 7.70

Recorded pIC50 (compound C[C@@H](CO)Nc1nccc(-c2c[nH]c3c(P(C)(C)=O)cccc23)n1 [Compound 186] ): 4.30 to 5.30

Recorded pIC50 (compound C[C@@H](CO)Nc1ncc(C#N)c(-c2c[nH]c3c(P(C)(C)=O)cccc23)n1 [Compound 179] ): > 7.70

Recorded pIC50 (compound CC[C@](C)(CO)Nc1ncc(C(F)(F)F)c(-c2c[nH]c3c(P(C)(C)=O)cccc23)n1 [Compound 161] ): > 7.70

Recorded pIC50 (compound CN(C)C[C@H]1CCCC1Nc1ncc(C(F)(F)F)c(-c2c[nH]c3c(P(C)(C)=O)cccc23)n1 (stereo in doubt) [Compound 134] ): > 7.70

Recorded pIC50 (compound C[C@@H]1C[C@H](Nc2ncc(C(F)(F)F)c(-c3c[nH]c4nc(N5CCOCC5)ccc34)n2)CCN1 [Compound 54] ): 6.70 to 7.70

Recorded pIC50 (compound CP(C)(=O)c1cccc2c(-c3nc(NCC(O)C4CCC4)ncc3C(F)(F)F)c[nH]c12 (single isomer, unassigned) [Compound 139] ): 6.70 to 7.70

Recorded pIC50 (compound CP(C)(=O)c1cccc2c(-c3nc(NCC4CC4CO)ncc3C(F)(F)F)c[nH]c12 (single isomer, unassigned) [Compound 143] ): > 7.70

Recorded pIC50 (compound CC(C)(CO)Nc1ncc(C(F)(F)F)c(-c2c[nH]c3c(P(C)(C)=O)cccc23)n1 [Compound 85] ): > 7.70

Recorded pIC50 (compound CP(C)(=O)c1c(C#N)ccc2c(-c3nc(N[C@H]4CC[C@H](N)C4)ncc3C(F)(F)F)c[nH]c12 [Compound 78] ): > 7.70
